molecular target: KRAS G13C (Homo sapiens, UniProt P01116+P62937, G13C); assay: Ras-Raf disruption / FRET / MOA assay (BRAF RBD); assay type: biochemical; conditions: Ras-Raf disruption, with Cyclophilin A; read-out: KRAS G13C FRET data IC50
Sequence (P01116 1-169 isoform P01116-2 G13C limits assumed): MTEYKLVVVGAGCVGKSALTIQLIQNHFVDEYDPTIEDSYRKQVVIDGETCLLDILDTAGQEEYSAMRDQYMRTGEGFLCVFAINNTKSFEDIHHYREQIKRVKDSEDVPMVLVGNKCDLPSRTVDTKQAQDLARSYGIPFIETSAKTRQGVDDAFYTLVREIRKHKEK
Sequence (P62937 whole entry): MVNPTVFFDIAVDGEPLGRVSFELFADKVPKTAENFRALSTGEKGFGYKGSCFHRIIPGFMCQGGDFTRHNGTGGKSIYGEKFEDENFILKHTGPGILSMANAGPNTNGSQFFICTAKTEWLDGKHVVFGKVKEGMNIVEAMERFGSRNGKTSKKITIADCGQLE
pIC50: −log10 of the molar value.
EXPERIMENTAL ENDPOINT: pIC50

// worked examples, pIC50 included
INSERT INTO results (compound, result) VALUES
  ('CCn1c(-c2cccnc2[C@H](C)OC)c2c3cc(ccc31)-c1csc(n1)C[C@H](NC(=O)[C@H](C(C)C)N(C)C(=O)N1CCN(C(=O)[C@H]3CN3)CC1)C(=O)N1CCC[C@H](N1)C(=O)OCC(C)(C)C2', '7.00 to 8.00'),
  ('CCn1c(-c2cccnc2[C@H](C)OC)c2c3cc(ccc31)-c1cc(O)cc(c1)C[C@H](NC(=O)[C@H](C1CCCC1)N1CC[C@]3(CCN(C(=O)[C@H]4CN4)C3)C1=O)C(=O)N1CCC[C@H](N1)C(=O)OCC(C)(C)C2', '7.00 to 8.00');

Entry CCn1c(-c2cccnc2[C@H](C)OC)c2c3cc(ccc31)-c1csc(n1)C[C@H](NC(=O)[C@H](C(C)C)N(C)C(=O)N1CC(CN(C)C(=O)[C@@H]3CN3)C1)C(=O)N1CCC[C@H](N1)C(=O)OCC(C)(C)C2 (atropisomer, axis not shown) ; pIC50 = 6.00 to 7.00

Noted for CCn1c(-c2cccnc2[C@H](C)OC)c2c3cc(ccc31)-c1cc(O)cc(c1)C[C@H](NC(=O)[C@H](C(C)C)N(C)C(=O)c1nc(NC(=O)[C@H]3CN3)cs1)C(=O)N1CCC[C@H](N1)C(=O)OCC(C)(C)C2 (atropisomer, axis not shown) : its pIC50 reads 7.00 to 8.00

---

Listed next: entries and their corresponding IC50.
target: NRAS Q61K (Homo sapiens, UniProt P01111+P62937, Q61K); assay: Ras-Raf disruption / FRET / MOA assay (BRAF RBD); type: biochemical; settings: NRAS Q61K; read-out: NRAS Q61K FRET data IC50
Sequence (P01111 whole entry Q61K, one chain of several): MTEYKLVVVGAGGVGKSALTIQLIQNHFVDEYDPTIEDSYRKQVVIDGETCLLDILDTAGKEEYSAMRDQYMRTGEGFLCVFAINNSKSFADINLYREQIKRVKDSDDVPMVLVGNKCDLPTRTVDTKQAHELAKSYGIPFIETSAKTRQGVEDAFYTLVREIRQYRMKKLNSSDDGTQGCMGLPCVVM

INSERT INTO assay_data (compound, result) VALUES
  ('CCn1c(-c2cccnc2[C@H](C)OC)c2c3cc(ccc31)-c1csc(n1)C[C@H](NC(=O)[C@H](C(C)C)N(C)C(=O)N1CC(CN(C)C(=O)[C@H]3CN3)C1)C(=O)N1CCC[C@H](N1)C(=O)OCC(C)(C)C2 (atropisomer, axis not shown)', '10 to 100 nM');

Moving on to the next compound.
IC50 measured on CCn1c(-c2cccnc2[C@H](C)OC)c2c3cc(ccc31)-c1cc(O)cc(c1)C[C@H](NC(=O)[C@H](C(C)C)N(C)C(=O)[C@@H]1CCCN(C(=O)[C@H]3CN3)C1)C(=O)N1CCC[C@H](N1)C(=O)OCC(C)(C)C2 (atropisomer, axis not shown) = 100 to 1000 nM

---

biological target: NRAS Q61K (Homo sapiens, UniProt P01111+P62937, Q61K); assay: Disruption of BRAF RBD interaction with Ras (FRET / MOA assay, with Cyclophilin A); format: biochemical; settings: NRAS Q61K; read-out: NRAS Q61K FRET data IC50
pIC50: −log10 of the molar value.
Measured pIC50 by item

Entry `C=CS(=O)(=O)N1CC[C@H](C(=O)N(C)[C@H](C(=O)N[C@H]2Cc3cccc(c3)-c3ccc4c(c3)c(c(-c3cncnc3)n4CC)CC(C)(C)COC(=O)[C@@H]3CCCN(N3)C2=O)C(C)C)C1` , NRAS Q61K (Homo sapiens, UniProt P01111+P62937, Q61K) data, pIC50 value: < 5.00

Response field pIC50 (NRAS Q61K (Homo sapiens, UniProt P01111+P62937, Q61K)) for item CCn1c(-c2cccnc2[C@H](C)OC)c2c3cc(ccc31)-c1cccc(n1)C[C@H](NC(=O)[C@H](C(C)C)N(C)C(=O)N1CCC13CN(C(=O)C#CC(C)(C)N(C)C)C3)C(=O)N1CCCC(N1)C(=O)OCC(C)(C)C2 (stereo partly drawn) : 6.00 to 7.00

With NRAS Q61K (Homo sapiens, UniProt P01111+P62937, Q61K) as the test system, CCn1c(-c2cccnc2[C@H](C)OC)c2c3cc(ccc31)-c1csc(n1)C[C@H](NC(=O)[C@H](C(C)C)N(C)C(=O)N1[C@H](C)COC[C@H]1C)C(=O)N1CCC[C@H](N1)C(=O)OCC(C)(C)C2 (atropisomer, axis not shown) showed pIC50 of > 8.00

// pIC50 (NRAS Q61K (Homo sapiens, UniProt P01111+P62937, Q61K)) for C=CC(=O)N1CC[C@H](C(=O)N(C)[C@H](C(=O)N[C@H]2Cc3cccc(c3)-c3ccc4c(c3)c(c(-c3cccnc3[C@H](C)OC)n4CC)CC(C)(C)COC(=O)C3CCCN(N3)C2=O)[C@@H](C)C(F)(F)F)C1 (stereo partly drawn) = 5.00 to 6.00

// pIC50 (NRAS Q61K (Homo sapiens, UniProt P01111+P62937, Q61K)) for CCn1c(-c2cccnc2[C@H](C)OC)c2c3cc(ccc31)-c1csc(n1)C[C@H](NC(=O)[C@H](C(C)C)N(C)C(=O)N1CCC3(CCN(C)CC3)C1)C(=O)N1CCC[C@H](N1)C(=O)OCC(C)(C)C2 (atropisomer, axis not shown) = 7.00 to 8.00

Assay NRAS Q61K (Homo sapiens, UniProt P01111+P62937, Q61K), sample `CCn1c(-c2cccnc2[C@H](C)OC)c2c3cc(ccc31)-c1csc(n1)C[C@H](NC(=O)C1(F)COC1)C(=O)N1CCC[C@H](N1)C(=O)OCC(C)(C)C2` , pIC50 read: 6.00 to 7.00

Short answer on NRAS Q61K (Homo sapiens, UniProt P01111+P62937, Q61K) for CCn1c(-c2cc(N3CCN(C)CC3)cnc2[C@H](C)OC)c2c3cc(ccc31)-c1csc(n1)C[C@H](NC(=O)[C@H](C(C)C)N(C)C(=O)N1C[C@@H](C)N(C)C[C@H]1C)C(=O)N1CCC[C@H](N1)C(=O)OCC(C)(C)C2 (atropisomer, axis not shown) , pIC50: 6.00 to 7.00

Form field pIC50 for item `C=CC(=O)N1CC[C@H](C(=O)N(C)[C@H](C(=O)N[C@H]2Cc3cc(O)cc(c3)-c3ccc4c(c3)c(c(-c3ccccc3N3CCOCC3)n4CC)CC(C)(C)COC(=O)[C@@H]3CCCN(N3)C2=O)C(C)C)C1` on NRAS Q61K (Homo sapiens, UniProt P01111+P62937, Q61K): < 5.00

The compound `CCn1c(-c2cccnc2[C@H](C)OC)c2c3cc(ccc31)-c1csc(n1)C[C@H](NC(=O)[C@H]1C[C@@H]1C)C(=O)N1CCC[C@H](N1)C(=O)OCC(C)(C)C2` on NRAS Q61K (Homo sapiens, UniProt P01111+P62937, Q61K): pIC50 was 6.00 to 7.00

Cited source: patent US20230233569A1
